Some molecules, each annotated with its measured pIC50.
Molecular target: beta-catenin/TCF4 engagement (Homo sapiens, UniProt P35222)
Construct: expressed in transfected cells; host or cells: HEK293
Sequence (P35222 1-781): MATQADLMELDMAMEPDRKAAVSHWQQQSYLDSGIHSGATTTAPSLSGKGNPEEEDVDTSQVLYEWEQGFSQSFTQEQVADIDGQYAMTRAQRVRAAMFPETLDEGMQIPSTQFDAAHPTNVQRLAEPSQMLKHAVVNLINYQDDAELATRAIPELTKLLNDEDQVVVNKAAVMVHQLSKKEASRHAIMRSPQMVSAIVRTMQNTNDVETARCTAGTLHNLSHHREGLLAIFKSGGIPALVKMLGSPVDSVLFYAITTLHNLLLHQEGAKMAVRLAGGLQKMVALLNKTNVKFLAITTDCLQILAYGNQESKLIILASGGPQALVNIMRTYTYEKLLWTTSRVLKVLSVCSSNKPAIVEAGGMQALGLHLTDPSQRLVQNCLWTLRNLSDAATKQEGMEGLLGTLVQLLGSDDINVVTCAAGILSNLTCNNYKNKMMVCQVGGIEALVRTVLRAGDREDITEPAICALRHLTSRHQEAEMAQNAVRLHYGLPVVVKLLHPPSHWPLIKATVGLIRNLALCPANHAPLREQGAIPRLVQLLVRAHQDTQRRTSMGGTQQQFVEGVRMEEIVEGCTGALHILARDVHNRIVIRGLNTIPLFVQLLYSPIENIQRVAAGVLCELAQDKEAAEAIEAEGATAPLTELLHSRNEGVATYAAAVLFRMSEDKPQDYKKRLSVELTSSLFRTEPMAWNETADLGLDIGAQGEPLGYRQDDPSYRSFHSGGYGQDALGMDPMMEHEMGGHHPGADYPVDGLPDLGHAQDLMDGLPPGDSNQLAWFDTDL
Assay: Nano-BRET target engagement assay (B-cat-Halo & TCF4-Luc in HEK293 cells)
Format: cell-based
Conditions: read-out: NanoBRET Abs IC50
pIC50 is a log-scale quantity: -log10 of the concentration expressed in molar.

{"columns": ["molecule", "test result"],
 "data": [
  ["CC(=O)N1CCC[C@]12CC=CCCCC1(CCCC=CCCCOC(=O)N3CC[C@@](C(=O)N[C@@H](Cc4ccsc4)C(=O)N[C@@H](Cc4csc5ccccc45)C(=O)N[C@@H](CCC(N)=O)C(N)=O)(C3)NC(=O)[C@H](CC(C)C)NC(=O)[C@H](Cc3ccccc3)NC(=O)[C@H](C)NC(=O)[C@H](C)NC(=O)[C@H](CCC(=O)S)NC(=O)[C@H](CC(=O)O)NC1=O)NC(=O)[C@H](CC(C)(C)C)NC(=O)[C@H](CC(=O)O)NC2=O (stereo partly drawn) [I-1949]", 4.55],
  ["CC(=O)N1CCC[C@]12CC=CCCCC1(CCCC=CCCCOC(=O)N3CC[C@@](C(=O)N[C@@H](Cc4ccsc4)C(=O)N[C@@H](Cc4csc5ccccc45)C(=O)N[C@@H](C)C(N)=O)(C3)NC(=O)[C@H](CC(C)C)NC(=O)[C@H](Cc3ccccc3)NC(=O)[C@@H](C)NC(=O)[C@H](C)NC(=O)[C@H](Cc3cccc(C(=O)O)c3)NC(=O)[C@H](CC(=O)O)NC1=O)NC(=O)[C@H](CC(C)(C)C)NC(=O)[C@H](CC(=O)O)NC2=O (stereo partly drawn) [I-2097]", 4.65],
  ["CC(=O)N1CCC[C@]12CC=CCCCC1(CCCC=CCCCOC(=O)N3CC[C@@](C(=O)N[C@@H](Cc4ccsc4)C(=O)N[C@@H](Cc4csc5ccccc45)C(=O)N[C@@H](CCC(N)=O)C(N)=O)(C3)NC(=O)[C@H](CCO)NC(=O)[C@H](Cc3ccccc3)NC(=O)[C@H](C)NC(=O)[C@H](C)NC(=O)[C@H](CC(=O)O)NC(=O)[C@H](CC(=O)O)NC1=O)NC(=O)[C@H](CC(C)(C)C)NC(=O)[C@H](CC(=O)O)NC2=O (stereo partly drawn) [I-803]", 5.02]
]}

Lookup: Look up beta-catenin/TCF4 engagement (Homo sapiens, UniProt P35222) data: pIC50 of CC(=O)N1CCC[C@]12CC=CCCCC1(CCCC=CCCCOC(=O)N3CC[C@@](C(=O)N[C@@H](Cc4ccsc4)C(=O)N[C@@H](Cc4csc5ccccc45)C(=O)N[C@@H](CCC(N)=O)C(N)=O)(C3)NC(=O)[C@H](CC(C)C)NC(=O)[C@H](Cc3ccccc3)NC(=O)[C@H](C)NC(=O)[C@H](C)NC(=O)[C@H](CCn3cc(CC(C)(C)C(=O)O)nn3)NC(=O)[C@H](CC(=O)O)NC1=O)NC(=O)[C@H](CC(C)(C)C)NC(=O)[C@H](CC(=O)O)NC2=O (stereo partly drawn) [I-2077] , then report it.
Found: 4.91

Lookup: Look up beta-catenin/TCF4 engagement (Homo sapiens, UniProt P35222) data: pIC50 of CC(=O)N1CCC[C@]12CC=CCCCC1(CCCC=CCCCOC(=O)N3CC[C@@](C(=O)N[C@@H](Cc4ccsc4)C(=O)N[C@@H](Cc4csc5ccccc45)C(=O)N[C@@H](Cc4c[nH]cn4)C(N)=O)(C3)NC(=O)[C@H](CCO)NC(=O)[C@H](Cc3ccccc3)NC(=O)[C@H](C)NC(=O)[C@H](C)NC(=O)[C@H](CC(=O)O)NC(=O)[C@H](CC(=O)O)NC1=O)NC(=O)[C@H](CC(C)(C)C)NC(=O)[C@H](CC(=O)O)NC2=O (stereo partly drawn) [I-804] , then report it.
Found: 4.87

Lookup: Look up beta-catenin/TCF4 engagement (Homo sapiens, UniProt P35222) data: pIC50 of CC(=O)N1CCC[C@]12CC=CCCCC1(CCCC=CCCCOC(=O)N3CC[C@@](C(=O)N[C@@H](Cc4ccccc4Cl)C(=O)N[C@@H](Cc4csc5ccccc45)C(=O)N[C@@H](CO)C(N)=O)(C3)NC(=O)[C@H](CC(C)C)NC(=O)[C@H](Cc3ccccc3)NC(=O)[C@H](C)NC(=O)C(C)(C)NC(=O)[C@H](Cc3cccc(C(=O)O)c3)NC(=O)[C@H](CC(=O)O)NC1=O)NC(=O)[C@H](CC(C)(C)C)NC(=O)[C@H](CC(=O)O)NC2=O (stereo partly drawn) [I-1899] , then report it.
Found: 5.29

Lookup: Look up beta-catenin/TCF4 engagement (Homo sapiens, UniProt P35222) data: pIC50 of CCCC(=O)NCCCC[C@H](NC(=O)[C@H](CCC(N)=O)NC(=O)[C@H](Cc1csc2ccccc12)NC(=O)[C@H](Cc1ccsc1)NC(=O)[C@]12CCN(C1)C(=O)OCCCC=CCCCC1(CCCC=CC[C@]3(CCCN3C(C)=O)C(=O)N[C@@H](CC(=O)O)C(=O)N[C@@H](CC(C)(C)C)C(=O)N1)C(=O)N[C@@H](CC(=O)O)C(=O)N[C@@H](CC(=O)O)C(=O)N[C@@H](C)C(=O)N[C@@H](C)C(=O)N[C@@H](Cc1ccccc1)C(=O)N[C@@H](CC(N)=O)C(=O)N2)C(N)=O (stereo partly drawn) [I-917] , then report it.
Found: 4.71

Lookup: Look up beta-catenin/TCF4 engagement (Homo sapiens, UniProt P35222) data: pIC50 of COc1cccc(C[C@@H]2NC(=O)[C@H](C)NC(=O)[C@H](C)NC(=O)[C@H](CC(=O)O)NC(=O)[C@H](CC(=O)O)NC(=O)C3(CCCC=CCCCOC(=O)N4CC[C@@](C(=O)N[C@@H](Cc5ccccc5Cl)C(=O)N[C@@H](Cc5csc6ccccc56)C(=O)N[C@@H](CCC(N)=O)C(N)=O)(C4)NC(=O)[C@H](CC(C)C)NC2=O)CCCC=CC[C@]2(CCCN2C(C)=O)C(=O)N[C@@H](CC(=O)O)C(=O)N[C@@H](CC(C)(C)C)C(=O)N3)c1 (stereo partly drawn) [I-1121] , then report it.
Found: 5.04

* * *

Molecular target: full-length beta-Catenin (Uniprot ID P35222) (Homo sapiens)
Construct: 10 nM full-length beta-Catenin (Uniprot ID P35222)
Sequence (P35222 1-781): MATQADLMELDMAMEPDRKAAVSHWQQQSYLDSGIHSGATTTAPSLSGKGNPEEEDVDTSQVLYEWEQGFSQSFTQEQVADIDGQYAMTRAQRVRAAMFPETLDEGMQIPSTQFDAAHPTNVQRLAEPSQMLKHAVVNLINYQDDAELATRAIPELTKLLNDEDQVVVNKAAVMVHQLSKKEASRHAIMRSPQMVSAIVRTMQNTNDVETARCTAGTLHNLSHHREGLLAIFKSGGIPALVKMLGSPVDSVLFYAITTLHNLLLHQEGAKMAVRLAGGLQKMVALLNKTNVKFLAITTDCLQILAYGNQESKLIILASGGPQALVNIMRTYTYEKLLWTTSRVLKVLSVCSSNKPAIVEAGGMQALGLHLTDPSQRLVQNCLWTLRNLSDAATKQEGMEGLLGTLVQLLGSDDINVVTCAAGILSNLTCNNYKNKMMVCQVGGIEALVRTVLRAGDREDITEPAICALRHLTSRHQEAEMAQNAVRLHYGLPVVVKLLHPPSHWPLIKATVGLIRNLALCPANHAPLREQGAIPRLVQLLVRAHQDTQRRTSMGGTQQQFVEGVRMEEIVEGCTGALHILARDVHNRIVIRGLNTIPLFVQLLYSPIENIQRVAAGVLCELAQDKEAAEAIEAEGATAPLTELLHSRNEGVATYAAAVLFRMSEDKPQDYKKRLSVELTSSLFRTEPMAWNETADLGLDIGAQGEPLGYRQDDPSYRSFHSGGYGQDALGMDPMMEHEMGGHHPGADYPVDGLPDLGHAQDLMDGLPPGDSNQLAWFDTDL
Assay: Fluorescence polarization IC50 (beta-catenin / 5FAM-TCF4 10-53 competition)
Assay type: binding
Conditions: fluorescence polarization; read-out: beta-Catenin FP IC50
Some compounds, each annotated with its measured IC50.
Expressed in µM, but write only the number.

{"columns": ["compound", "IC50 (µM)"],
 "data": [
  ["CC(=O)N1CCC[C@]12CC=CCCCC1(CCCC=CCCCCCC[C@@](C)(C(=O)N[C@@H](Cc3ccsc3)C(=O)N[C@@H](Cc3csc4ccccc34)C(N)=O)NC(=O)[C@H](CC(N)=O)NC(=O)[C@H](Cc3ccccc3)NC(=O)[C@H](C)NC(=O)[C@H](C)NC(=O)[C@H](CCC(=O)O)NC(=O)[C@H](CC(=O)O)NC1=O)NC(=O)[C@H](CC(C)C)NC(=O)[C@H](CC(=O)O)NC2=O (some centres unmarked) [I-717]", 0.039]
]}

From here, focus on the item given below.
Lookup: For the compound CC(=O)N1CCC[C@]12CC=CCCCC1(CCCC=CCCCOC(=O)N3CC[C@@](C(=O)N[C@@H](Cc4ccsc4)C(=O)N[C@@H](Cc4csc5ccccc45)C(=O)N[C@@H](CCC(N)=O)C(N)=O)(C3)NC(=O)[C@H](CC(C)C)NC(=O)[C@H](Cc3ccccc3)NC(=O)[C@H](C)NC(=O)[C@H](C)NC(=O)[C@H](CC(C)C)NC(=O)[C@H](CC(=O)O)NC1=O)NC(=O)[C@H](CC(C)(C)C)NC(=O)[C@H](CC(=O)O)NC2=O (some centres unmarked) , give its reported IC50.
Found: 6.56
